# STUDY_SYSTEM: T1, recombinant human LILRB2-His (human, UniProt Q8N423 22-461, limits assumed)
# T1 construct: Bought protein; also called LILRB2 protein
# T1 sequence (Q8N423 22-461 limits assumed): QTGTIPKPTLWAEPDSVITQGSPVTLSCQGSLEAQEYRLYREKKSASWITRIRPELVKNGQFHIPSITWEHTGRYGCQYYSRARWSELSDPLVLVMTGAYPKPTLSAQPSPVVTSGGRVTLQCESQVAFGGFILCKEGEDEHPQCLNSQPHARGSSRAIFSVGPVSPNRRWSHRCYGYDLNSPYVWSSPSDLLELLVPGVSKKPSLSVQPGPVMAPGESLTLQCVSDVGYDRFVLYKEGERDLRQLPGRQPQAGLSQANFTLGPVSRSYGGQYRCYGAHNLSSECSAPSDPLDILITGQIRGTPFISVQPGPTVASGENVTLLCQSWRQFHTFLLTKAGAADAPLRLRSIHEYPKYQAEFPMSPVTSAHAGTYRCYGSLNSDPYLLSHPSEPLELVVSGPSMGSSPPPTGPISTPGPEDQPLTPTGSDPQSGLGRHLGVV
# EXPERIMENT: MSD ELISA, coated antigen, transfection supernatant

BINDER	EC50
B21H4-21 (antibody, human IgG4 S228P, kappa, V domains shown, humanized IgG4/kappa, VH2+VL1; transfection supernatant) VH: EVQLLESGGGLVQPGGSLRLSCAASGFSLNTYAMTWVRQAPGKGLEWVSIIVASGGTYYASWAKGRFTISRDNSKNTLYLQMNSLTVEDTAVYFCARGGMGSDWGESLDAFDPWGQGTLVTVSS VL: DIQMTQSPSTLSASVGDRVTITCQASGNIYSFLAWYQQKPGKAPKLLIYTASNLETGVPSRFSGSGSGTEYTLTISSLQPDDFATYYCLGGLYSSDVSYAFGPGTKVEIKR	1.93 ng/mL

Numbers sourced from patent US20250002577A1.
